# TESTED ON: T1, full-length human Tau (Tau441; 2N4R), recombinant (human, UniProt P10636 1-758)
# T1 construct: made in E. coli, His6-Smt3 tag removed; biotinylated through amines for Octet and phage work; also called r-Tau; recombinant Tau
# T1 sequence (P10636 other isoform, or with tags, fused parts or gaps limits assumed): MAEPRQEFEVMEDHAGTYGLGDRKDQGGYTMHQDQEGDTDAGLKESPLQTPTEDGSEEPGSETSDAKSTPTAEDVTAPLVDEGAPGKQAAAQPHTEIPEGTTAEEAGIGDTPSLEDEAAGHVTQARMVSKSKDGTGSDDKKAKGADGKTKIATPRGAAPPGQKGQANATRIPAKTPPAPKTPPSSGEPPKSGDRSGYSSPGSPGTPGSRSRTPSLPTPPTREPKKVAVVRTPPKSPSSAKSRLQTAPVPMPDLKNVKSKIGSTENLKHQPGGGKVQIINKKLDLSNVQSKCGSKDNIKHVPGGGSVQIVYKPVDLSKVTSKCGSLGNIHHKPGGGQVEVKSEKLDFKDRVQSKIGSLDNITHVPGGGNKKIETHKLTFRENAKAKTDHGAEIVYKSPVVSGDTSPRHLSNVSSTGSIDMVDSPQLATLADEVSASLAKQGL
# ASSAY OVERVIEW: SPR Biacore
pKd: −log10 of the molar value.

# BINDER, pKd
measured = [
    ("Clone with H1_4 (antibody, V domains shown, IgG based on hu1C7.v2) VH: EVQLLESGGGLVQPGGSLRLSCAASGFRFSGPGMSWVRQAPGKGLEWVASISGDGGSYIHYADSVKGRFTISRDNSKNTLYLQMNSLRAEDTAVYYCARLPYWGQGTLVTVSS VL: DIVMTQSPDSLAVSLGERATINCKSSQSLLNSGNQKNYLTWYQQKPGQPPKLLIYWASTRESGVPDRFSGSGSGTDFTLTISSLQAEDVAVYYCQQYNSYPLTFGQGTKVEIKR", 9.48),
    ("Clone with H1_2-5 (antibody, V domains shown, based on hu1C7.v2) VH: EVQLLESGGGLVQPGGSLRLSCAASGFTFSKVGTSWVRQAPGKGLEWVASISGDGGSYIHYADSVKGRFTISRDNSKNTLYLQMNSLRAEDTAVYYCARLPYWGQGTLVTVSS VL: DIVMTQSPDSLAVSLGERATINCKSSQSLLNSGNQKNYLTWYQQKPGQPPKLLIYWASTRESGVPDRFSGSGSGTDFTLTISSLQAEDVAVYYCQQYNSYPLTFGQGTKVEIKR", 9.24),
]
